// data source = the supplement of paper PMC10307832

I'd appreciate it if you could supply relative viability values for the items below.
System: NCI-H596
assay_procedure: relative viability (nuclei count vs DMSO), 5 days (fraction); higher = more cells survive
assay_context: first compound 0.4 µM

1. Cc1sc2c(c1C)C(c1ccc(Cl)cc1)=N[C@@H](CC(=O)OC(C)(C)C)c1nnc(C)n1-2 [JQ1] + C[C@@H](Oc1cc(-c2cnn(C3CCNCC3)c2)cnc1N)c1c(Cl)ccc(F)c1Cl [Crizotinib] (partner 1 µM) : 0.472
2. Cc1sc2c(c1C)C(c1ccc(Cl)cc1)=N[C@@H](CC(=O)OC(C)(C)C)c1nnc(C)n1-2 [JQ1] + CC1(C)CCC(c2ccc(Cl)cc2)=C(CN2CCN(c3ccc(C(=O)NS(=O)(=O)c4ccc(N[C@H](CCN5CCOCC5)CSc5ccccc5)c(S(=O)(=O)C(F)(F)F)c4)cc3)CC2)C1 [Navitoclax] (partner 0.5 µM) : 0.421
3. Cc1sc2c(c1C)C(c1ccc(Cl)cc1)=N[C@@H](CC(=O)OC(C)(C)C)c1nnc(C)n1-2 [JQ1] + Nc1nc2[nH]cc(CCc3ccc(C(=O)N[C@@H](CCC(=O)O)C(=O)O)cc3)c2c(=O)[nH]1 [Pemetrexed] (partner 0.2 µM) : 0.386
4. Cc1sc2c(c1C)C(c1ccc(Cl)cc1)=N[C@@H](CC(=O)OC(C)(C)C)c1nnc(C)n1-2 [JQ1] + COc1cccc2cc(-c3nc([C@H]4CC[C@H](C(=O)O)CC4)n4ncnc(N)c34)[nH]c12 [OSI-027] (partner 0.5 µM) : 0.539
5. Cc1sc2c(c1C)C(c1ccc(Cl)cc1)=N[C@@H](CC(=O)OC(C)(C)C)c1nnc(C)n1-2 [JQ1] + O=C(c1cc(Cc2n[nH]c(=O)c3ccccc23)ccc1F)N1CCN(C(=O)C2CC2)CC1 [Olaparib] (partner 8 µM) : 0.367

query: Name the reported relative viability value associated with the compound Cc1sc2c(c1C)C(c1ccc(Cl)cc1)=N[C@@H](CC(=O)OC(C)(C)C)c1nnc(C)n1-2 [JQ1] + Nc1ncn([C@H]2C[C@H](O)[C@@H](CO)O2)c(=O)n1 [Decitabine] (partner 2 µM)
result: 0.679

---

Test system: NCI-H1395
assay_procedure: relative viability (nuclei count vs DMSO), 5 days (fraction); higher = more cells survive
assay_context: first compound 5 µM
endpoint: relative viability
Answers are plain numbers.

Study these solved cases before continuing.
1. O=C(O)CCCCC(CCSCc1ccccc1)SCc1ccccc1 (stereo not drawn) [CPI-613] + COc1cc2c(Oc3ccc(NC(=O)C4(C(=O)Nc5ccc(F)cc5)CC4)cc3F)ccnc2cc1OCCCN1CCOCC1 [Foretinib] (partner 0.25 µM) : 0.973
2. O=C(O)CCCCC(CCSCc1ccccc1)SCc1ccccc1 (stereo not drawn) [CPI-613] + CS(=O)(=O)CCNCc1ccc(-c2ccc3ncnc(Nc4ccc(OCc5cccc(F)c5)c(Cl)c4)c3c2)o1 [Lapatinib] (partner 2 µM) : 1.01
3. O=C(O)CCCCC(CCSCc1ccccc1)SCc1ccccc1 (stereo not drawn) [CPI-613] + O=C(c1cc(Cc2n[nH]c(=O)c3ccccc23)ccc1F)N1CCN(C(=O)C2CC2)CC1 [Olaparib] (partner 8 µM) : 0.473
4. O=C(O)CCCCC(CCSCc1ccccc1)SCc1ccccc1 (stereo not drawn) [CPI-613] + N=C(N)NC(=N)NCCc1ccccc1 [Phenformin] (partner 250 µM) : 0.419
5. O=C(O)CCCCC(CCSCc1ccccc1)SCc1ccccc1 (stereo not drawn) [CPI-613] + C[C@]1(O)C[C@@H](c2nc(-c3ccc4ccc(-c5ccccc5)nc4c3)c3c(N)nccn32)C1 [Linsitinib] (partner 1 µM) : 1.09

Record relative viability for all entries; do not skip any.
1. O=C(O)CCCCC(CCSCc1ccccc1)SCc1ccccc1 (stereo not drawn) [CPI-613] + NC(=O)Nc1cc(-c2cccc(F)c2)sc1C(=O)N[C@H]1CCCNC1 [AZD7762] (partner 0.2 µM)
2. O=C(O)CCCCC(CCSCc1ccccc1)SCc1ccccc1 (stereo not drawn) [CPI-613] + CC(=O)c1c(C)c2cnc(Nc3ccc(N4CCNCC4)cn3)nc2n(C2CCCC2)c1=O [Palbociclib] (partner 0.5 µM)
3. O=C(O)CCCCC(CCSCc1ccccc1)SCc1ccccc1 (stereo not drawn) [CPI-613] + Nc1nc2[nH]cc(CCc3ccc(C(=O)N[C@@H](CCC(=O)O)C(=O)O)cc3)c2c(=O)[nH]1 [Pemetrexed] (partner 0.2 µM)

result:
1. 0.42
2. 0.619
3. 0.942

---

Tested on: PC-14
assay_procedure: relative viability (nuclei count vs DMSO), 5 days (fraction); higher = more cells survive
assay_context: first compound 15.81 µM
Would you kindly list relative viability for each of these compounds?
Answers are plain numbers.

Please review the following examples before continuing.
1. O=C(O)CCCCC(CCSCc1ccccc1)SCc1ccccc1 (stereo not given) [CPI-613] + COc1cccc2cc(-c3nc([C@H]4CC[C@H](C(=O)O)CC4)n4ncnc(N)c34)[nH]c12 [OSI-027] (partner 0.5 µM) : 0.756
2. O=C(O)CCCCC(CCSCc1ccccc1)SCc1ccccc1 (stereo not given) [CPI-613] + CC1(C)CCC(c2ccc(Cl)cc2)=C(CN2CCN(c3ccc(C(=O)NS(=O)(=O)c4ccc(N[C@H](CCN5CCOCC5)CSc5ccccc5)c(S(=O)(=O)C(F)(F)F)c4)cc3)CC2)C1 [Navitoclax] (partner 0.5 µM) : 1.05
3. O=C(O)CCCCC(CCSCc1ccccc1)SCc1ccccc1 (stereo not given) [CPI-613] + CC(C)C[C@H](NC(=O)[C@H](Cc1ccccc1)NC(=O)c1cnccn1)B(O)O [Bortezomib] (partner 0.002 µM) : 0.855
4. O=C(O)CCCCC(CCSCc1ccccc1)SCc1ccccc1 (stereo not given) [CPI-613] + Nc1ncn([C@H]2C[C@H](O)[C@@H](CO)O2)c(=O)n1 [Decitabine] (partner 2 µM) : 0.201

query: Give the measured relative viability of O=C(O)CCCCC(CCSCc1ccccc1)SCc1ccccc1 (stereo not given) [CPI-613] + C[C@@H](Oc1cc(-c2cnn(C3CCNCC3)c2)cnc1N)c1c(Cl)ccc(F)c1Cl [Crizotinib] (partner 1 µM) .
result: 0.939

---

Test system: H3255
assay_procedure: relative viability (nuclei count vs DMSO), 5 days (fraction); higher = more cells survive
assay_context: first compound 0.08 µM
endpoint: relative viability

Consider the following illustrative entries.
1) Cc1cnc(-c2cnc(NCCNc3ccc(C#N)cn3)nc2-c2ccc(Cl)cc2Cl)[nH]1 + N=C(N)NC(=N)NCCc1ccccc1 [Phenformin] (partner 250 µM) : 0.409
2) Cc1cnc(-c2cnc(NCCNc3ccc(C#N)cn3)nc2-c2ccc(Cl)cc2Cl)[nH]1 + C[C@@H](Oc1cc(-c2cnn(C3CCNCC3)c2)cnc1N)c1c(Cl)ccc(F)c1Cl [Crizotinib] (partner 1 µM) : 1.03
3) Cc1cnc(-c2cnc(NCCNc3ccc(C#N)cn3)nc2-c2ccc(Cl)cc2Cl)[nH]1 + NC(=O)Nc1cc(-c2cccc(F)c2)sc1C(=O)N[C@H]1CCCNC1 [AZD7762] (partner 0.2 µM) : 0.996

Please examine the following record next.
query: Any idea what relative viability was measured for Cc1cnc(-c2cnc(NCCNc3ccc(C#N)cn3)nc2-c2ccc(Cl)cc2Cl)[nH]1 + Cc1nc(NC(=O)N2CCC[C@H]2C(N)=O)sc1-c1ccnc(C(C)(C)C(F)(F)F)c1 [Alpelisib] (partner 2 µM) ?
result: 0.886

---

Test system: NCI-H1734
assay_procedure: relative viability (nuclei count vs DMSO), 5 days (fraction); higher = more cells survive
assay_context: first compound 0.5 µM
Assignment: determine reported relative viability for the given compounds.
Give bare numbers.

Below, 5 compounds whose answers are already recorded.
1) COc1cc2nccc(Oc3ccc(NC(=O)Nc4cc(C)on4)c(Cl)c3)c2cc1OC [Tivozanib] + C[C@]1(O)C[C@@H](c2nc(-c3ccc4ccc(-c5ccccc5)nc4c3)c3c(N)nccn32)C1 [Linsitinib] (partner 1 µM) : 0.858
2) Nc1ccn([C@@H]2O[C@H](CO)[C@@H](O)[C@@H]2O)c(=O)n1 [Cytarabine] + O=C(c1cc(Cc2n[nH]c(=O)c3ccccc23)ccc1F)N1CCN(C(=O)C2CC2)CC1 [Olaparib] (partner 8 µM) : 0.122
3) Nc1ccn([C@@H]2O[C@H](CO)[C@@H](O)[C@@H]2O)c(=O)n1 [Cytarabine] + COc1cccc2cc(-c3nc([C@H]4CC[C@H](C(=O)O)CC4)n4ncnc(N)c34)[nH]c12 [OSI-027] (partner 0.5 µM) : 0.13
4) COc1cc2nccc(Oc3ccc(NC(=O)Nc4cc(C)on4)c(Cl)c3)c2cc1OC [Tivozanib] + N=C(N)NC(=N)NCCc1ccccc1 [Phenformin] (partner 250 µM) : 0.383
5) Nc1ccn([C@@H]2O[C@H](CO)[C@@H](O)[C@@H]2O)c(=O)n1 [Cytarabine] + C[C@]1(O)C[C@@H](c2nc(-c3ccc4ccc(-c5ccccc5)nc4c3)c3c(N)nccn32)C1 [Linsitinib] (partner 1 µM) : 0.128

Hello, I would appreciate it if you could give relative viability for each entry below.
1. Nc1ccn([C@@H]2O[C@H](CO)[C@@H](O)[C@@H]2O)c(=O)n1 [Cytarabine] + COc1cc2c(Oc3ccc(NC(=O)C4(C(=O)Nc5ccc(F)cc5)CC4)cc3F)ccnc2cc1OCCCN1CCOCC1 [Foretinib] (partner 0.25 µM)
2. Nc1ccn([C@@H]2O[C@H](CO)[C@@H](O)[C@@H]2O)c(=O)n1 [Cytarabine] + C[C@@H](Oc1cc(-c2cnn(C3CCNCC3)c2)cnc1N)c1c(Cl)ccc(F)c1Cl [Crizotinib] (partner 1 µM)
3. COc1cc2nccc(Oc3ccc(NC(=O)Nc4cc(C)on4)c(Cl)c3)c2cc1OC [Tivozanib] + Cc1nc(NC(=O)N2CCC[C@H]2C(N)=O)sc1-c1ccnc(C(C)(C)C(F)(F)F)c1 [Alpelisib] (partner 2 µM)
4. Nc1ccn([C@@H]2O[C@H](CO)[C@@H](O)[C@@H]2O)c(=O)n1 [Cytarabine] + CS(=O)(=O)N1CCN(Cc2cc3nc(-c4cccc5[nH]ncc45)nc(N4CCOCC4)c3s2)CC1 [Pictilisib] (partner 1 µM)
5. Nc1ccn([C@@H]2O[C@H](CO)[C@@H](O)[C@@H]2O)c(=O)n1 [Cytarabine] + Nc1nc2[nH]cc(CCc3ccc(C(=O)N[C@@H](CCC(=O)O)C(=O)O)cc3)c2c(=O)[nH]1 [Pemetrexed] (partner 0.2 µM)

result:
[0.124, 0.157, 0.727, 0.118, 0.103]
